test: CellTiter-Glo cell viability; format: cell-based; conditions: human, Huh7 cells, Concentration 156.25, 4 day, read-out: mean_norm (normalized viability)
reported metric: viability at 4 day (%)
Express it in %; write the number only.

Find the recorded viability at 4 day belonging to CC[C@@H]1C(=O)N(C)c2cnc(Nc3ccc(C(=O)NCCOCCOCCOCCOCCC(=O)N4CCC(Nc5cccc6c5cc(C#CCNc5ccc(S(C)(=O)=O)cc5OC)n6CC(F)(F)F)CC4)cc3OC)nc2N1C1CCCC1 and report it.
109

* * *

assay: viability with doxycycline-inducible construct; assay type: cell-based; conditions: human, dox 100; Concentration 0.15625; read-out: mean_norm (normalized viability)
reported metric: viability (%)
Express it in %; write the number only.

Find the recorded viability belonging to CC[C@@H]1C(=O)N(C)c2cnc(Nc3ccc(C(=O)NC4CCN(C)CC4)cc3OC)nc2N1C1CCCC1 [BI2536] and report it.
88.6
